Target: purified human HDAC6 (Homo sapiens, UniProt Q9UBN7)
Construct: purchased BPS Bioscience 5006
Experiment: HDAC6 Enzyme Assay
Assay type: biochemical
Conditions: compound concentration 0.412 μM, read-out: Percent Inhibition
Endpoint Name: inhibition at 0.412 µM (%)

Please review the entries below; each comes with its answer.
O=C(NO)c1ccc2ccn(Cc3ccc(F)cc3Cl)c(=O)c2c1	94.9
O=C(NO)c1ccc2ccn(CCCn3cccc3)c(=O)c2c1	94.5
O=C(NO)c1ccc2c(=O)n(Cc3cccc(Cl)c3)cnc2c1	96.1
O=C(NO)c1ccc2ccn(Cc3ccc(C(F)(F)F)cc3C(F)(F)F)c(=O)c2c1	92.9
O=C(NO)c1ccc2ccn(CCCc3ccccc3)c(=O)c2c1	97
Cc1nc2cc(C(=O)NO)ccc2c(=O)n1C	59.8
O=C(NO)c1ccc2ccn(CCCC3CCCCC3)c(=O)c2c1	89.9

1: O=C(NO)c1ccc2c(=O)[nH]c(COc3ccccc3C(F)(F)F)nc2c1
2: Cn1c(=O)[nH]c2cc(C(=O)NO)ccc2c1=O
Lab note: check whether 1 or 2 has the lower measured inhibition at 0.412 µM. In your reply, give the label of the chosen option. 2
(2: 21.2%, 1: 72.8%)

* * *

Biological target: purified human HDAC6 (Homo sapiens)
Construct: purchased BPS Bioscience 5006
Sequence (Q9UBN7 1-1215): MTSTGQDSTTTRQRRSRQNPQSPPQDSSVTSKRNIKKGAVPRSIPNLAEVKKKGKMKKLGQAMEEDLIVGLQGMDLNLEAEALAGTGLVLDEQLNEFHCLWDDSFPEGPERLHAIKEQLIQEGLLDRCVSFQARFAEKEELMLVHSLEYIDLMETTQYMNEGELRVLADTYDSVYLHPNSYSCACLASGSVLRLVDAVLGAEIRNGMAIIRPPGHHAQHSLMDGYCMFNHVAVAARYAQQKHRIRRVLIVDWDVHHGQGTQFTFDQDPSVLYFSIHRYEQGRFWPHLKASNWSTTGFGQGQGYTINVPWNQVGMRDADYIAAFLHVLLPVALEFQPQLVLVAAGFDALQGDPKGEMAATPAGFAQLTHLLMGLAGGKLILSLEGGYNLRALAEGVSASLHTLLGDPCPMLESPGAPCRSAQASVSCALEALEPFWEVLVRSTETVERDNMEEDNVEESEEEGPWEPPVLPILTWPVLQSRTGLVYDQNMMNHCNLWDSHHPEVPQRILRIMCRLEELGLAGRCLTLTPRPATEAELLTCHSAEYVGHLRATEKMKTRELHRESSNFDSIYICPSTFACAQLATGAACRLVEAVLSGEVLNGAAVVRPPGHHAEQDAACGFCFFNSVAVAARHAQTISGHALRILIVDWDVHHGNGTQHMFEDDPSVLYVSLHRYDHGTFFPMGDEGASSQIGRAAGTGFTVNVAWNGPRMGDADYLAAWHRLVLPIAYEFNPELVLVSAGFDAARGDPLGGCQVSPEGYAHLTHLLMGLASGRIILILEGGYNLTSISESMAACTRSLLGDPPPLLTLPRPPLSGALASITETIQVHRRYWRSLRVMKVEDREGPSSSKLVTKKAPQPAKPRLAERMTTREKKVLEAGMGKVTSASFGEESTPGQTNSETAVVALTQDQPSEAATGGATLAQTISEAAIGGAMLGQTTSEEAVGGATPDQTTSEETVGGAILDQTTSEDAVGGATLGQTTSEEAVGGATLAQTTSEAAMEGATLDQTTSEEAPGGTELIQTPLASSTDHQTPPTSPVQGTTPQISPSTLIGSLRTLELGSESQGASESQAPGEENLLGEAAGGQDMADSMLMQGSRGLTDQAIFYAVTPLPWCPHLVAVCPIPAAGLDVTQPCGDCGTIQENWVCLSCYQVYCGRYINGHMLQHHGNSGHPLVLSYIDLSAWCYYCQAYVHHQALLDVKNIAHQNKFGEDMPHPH
Assay: HDAC6 Enzyme Assay
Type: biochemical
Details: compound concentration 0.412 μM, read-out: Percent Inhibition
Endpoint Name: inhibition at 0.412 µM (%)

Please review the entries below; each comes with its answer.
Cc1ccn(CCn2cnc3ccc(C(=O)NO)cc3c2=O)n1 [Compound I-57]	77.4
O=C(NO)c1ccc2ccn(CCOc3ccc(C45CC6CC(CC(C6)C4)C5)cc3)c(=O)c2c1 [Compound I-161]	67
O=C(NO)c1ccc2ccn(Cc3csc4ccc(Cl)cc34)c(=O)c2c1 [Compound I-211]	92.3

A: CC(C)Nc1nc2cc(C(=O)NO)ccc2c(=O)n1-c1ccc(Cl)cc1 [Compound I-40]
B: O=C(NO)c1ccc2c(=O)[nH]c(=O)[nH]c2c1 [Compound I-155]
Lab note: check whether A or B has the lower measured inhibition at 0.412 µM. In your reply, give the label of the chosen option. B
(B: 19.6%, A: 44.5%)

* * *

Biological target: purified human HDAC6 (Homo sapiens)
Construct: purchased BPS Bioscience 5006
Test: HDAC6 Enzyme Assay
Type: biochemical
Details: compound concentration 0.412 μM, read-out: Percent Inhibition
Endpoint Name: inhibition at 0.412 µM (%)

CS(=O)(=O)c1ccccc1OCCn1ccc2ccc(C(=O)NO)cc2c1=O [Compound I-167]	96.1
CC(C)(C)OC(=O)N1CCC(NCc2nc3cc(C(=O)NO)ccc3c(=O)[nH]2)CC1 [Compound I-56]	69
CC(C)CCCn1cnc2cc(C(=O)NO)ccc2c1=O [Compound I-275]	94.9

* * *

Biological target: purified human HDAC6 (Homo sapiens)
Construct: purchased BPS Bioscience 5006
Assay: HDAC6 Enzyme Assay
Type: biochemical
Settings: compound concentration 0.412 μM, read-out: Percent Inhibition
Endpoint Name: inhibition at 0.412 µM (%)

O=C(NO)c1ccc2c(=O)n(CC3CC3)cnc2c1	80.7
Cn1c(NCCc2ccc(Cl)cc2)nc2ccc(C(=O)NO)cc2c1=O	60.8
Cc1nc(-c2ccccc2OCCCn2ccc3ccc(C(=O)NO)cc3c2=O)cs1	67.4
O=C(NO)c1ccc2cc[nH]c(=O)c2c1	70.9

* * *

Biological target: purified human HDAC6 (Homo sapiens, UniProt Q9UBN7)
Construct: purchased BPS Bioscience 5006
Assay: HDAC6 Enzyme Assay
Type: biochemical
Conditions: compound concentration 0.37 μM, read-out: Percent Inhibition
Endpoint Name: inhibition at 0.37 µM (%)

O=C(NO)c1ccc2ncn(CCc3cccc(-c4ccc(C(F)(F)F)cc4)c3)c(=O)c2c1	72.5
CC(C)c1cccc(-c2cccc(Cn3cnc4ccc(C(=O)NO)cc4c3=O)c2)c1	78.9
CC(C)c1ccc(-c2cccc(CCn3cnc4ccc(C(=O)NO)cc4c3=O)c2)cc1	61.5
COc1cccc(-c2cccc(CCn3cnc4ccc(C(=O)NO)cc4c3=O)c2)c1	89.9
O=C(NO)c1ccc2ncn(CCc3cccc(-c4cccc(C(=O)NC5CC5)c4)c3)c(=O)c2c1	89.6
Cn1c(-c2nc3cc(C(=O)NO)ccc3c(=O)n2Cc2ccc(C(F)(F)F)cc2)cc2ccccc21	78.8

* * *

Molecular target: purified human HDAC6 (Homo sapiens)
Construct: purchased BPS Bioscience 5006
Experiment: HDAC6 Enzyme Assay
Type: biochemical
Settings: compound concentration 0.412 μM, read-out: Percent Inhibition
Endpoint Name: inhibition at 0.412 µM (%)

Please review the entries below; each comes with its answer.
O=C(NO)c1ccc2ncn(CC3CC3)c(=O)c2c1 [Compound I-25]	84.7
O=C(NO)c1ccc2ccn(Cc3ccccc3C(F)(F)F)c(=O)c2c1 [Compound I-172]	94.5
CC(C)(C)c1ccc(Cn2cnc3cc(C(=O)NO)ccc3c2=O)cc1 [Compound I-87]	91
O=C(NO)c1ccc2c(=O)n(CCc3ccccn3)c(-c3ccccc3)nc2c1 [Compound I-263]	91.1
Cc1ccn(CCn2ccc3ccc(C(=O)NO)cc3c2=O)n1 [Compound I-10]	84.5

A: O=C(NO)c1ccc2ccn(CCCOc3ccc4c(c3)OCO4)c(=O)c2c1 [Compound I-191]
B: CC(C)(C)OC(=O)N1CCC(NC(=O)c2nc3cc(C(=O)NO)ccc3c(=O)[nH]2)CC1 [Compound I-241]
Lab notebook, comparison: A versus B , higher inhibition at 0.412 µM goes to which? In your reply, give the label of the chosen option. A
(A: 95.5%, B: 29.8%)

* * *

Biological target: purified human HDAC6 (Homo sapiens, UniProt Q9UBN7)
Construct: purchased BPS Bioscience 5006
Sequence (Q9UBN7 1-1215): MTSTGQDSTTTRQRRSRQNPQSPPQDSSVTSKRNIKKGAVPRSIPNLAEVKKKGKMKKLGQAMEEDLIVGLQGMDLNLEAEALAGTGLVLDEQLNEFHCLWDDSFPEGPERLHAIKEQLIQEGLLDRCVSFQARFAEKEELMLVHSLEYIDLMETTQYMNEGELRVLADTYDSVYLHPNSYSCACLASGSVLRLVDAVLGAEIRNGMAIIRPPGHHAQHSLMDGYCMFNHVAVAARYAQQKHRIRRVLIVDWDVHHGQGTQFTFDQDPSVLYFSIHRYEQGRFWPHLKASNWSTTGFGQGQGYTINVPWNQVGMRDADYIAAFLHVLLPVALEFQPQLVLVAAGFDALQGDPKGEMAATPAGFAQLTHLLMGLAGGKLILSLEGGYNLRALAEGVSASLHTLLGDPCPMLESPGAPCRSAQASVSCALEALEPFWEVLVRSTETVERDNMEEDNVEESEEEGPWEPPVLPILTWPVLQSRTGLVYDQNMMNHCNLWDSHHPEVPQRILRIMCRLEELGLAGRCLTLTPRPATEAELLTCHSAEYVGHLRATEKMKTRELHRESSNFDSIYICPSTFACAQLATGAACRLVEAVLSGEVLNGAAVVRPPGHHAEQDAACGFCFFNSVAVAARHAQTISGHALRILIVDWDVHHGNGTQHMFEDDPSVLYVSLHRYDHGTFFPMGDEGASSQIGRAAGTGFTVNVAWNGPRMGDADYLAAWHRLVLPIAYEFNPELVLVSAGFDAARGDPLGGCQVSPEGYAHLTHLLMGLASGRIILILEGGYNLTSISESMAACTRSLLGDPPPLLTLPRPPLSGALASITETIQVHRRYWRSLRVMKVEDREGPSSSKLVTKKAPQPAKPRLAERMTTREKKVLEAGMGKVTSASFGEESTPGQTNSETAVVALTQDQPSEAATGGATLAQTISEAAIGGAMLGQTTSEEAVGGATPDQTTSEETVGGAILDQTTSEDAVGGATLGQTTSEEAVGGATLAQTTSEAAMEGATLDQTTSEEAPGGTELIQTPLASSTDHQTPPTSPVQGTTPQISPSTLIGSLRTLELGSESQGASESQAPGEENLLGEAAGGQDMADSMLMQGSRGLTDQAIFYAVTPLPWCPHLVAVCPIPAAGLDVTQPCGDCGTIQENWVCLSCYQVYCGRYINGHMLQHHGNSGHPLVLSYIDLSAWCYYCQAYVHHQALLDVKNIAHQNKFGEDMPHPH
Assay: HDAC6 Enzyme Assay
Type: biochemical
Conditions: compound concentration 0.37 μM, read-out: Percent Inhibition
Endpoint Name: inhibition at 0.37 µM (%)

O=C(NO)c1ccc2c(=O)n(Cc3ccc(C(F)(F)F)cc3)c(-c3ccc4ccccc4c3)nc2c1	72.6
Cc1ccc(Cc2nc3cc(C(=O)NO)ccc3c(=O)[nH]2)c(C)c1	56.7
O=C(NO)c1ccc2ncn(CCc3cccc(-c4ccccc4C(F)(F)F)c3)c(=O)c2c1	42.1
O=C(NO)c1ccc2ccn(-c3cccc(-c4ccncc4)c3)c(=O)c2c1	96.7
Cn1cc(-c2cccc(Cn3ccc4ccc(C(=O)NO)cc4c3=O)c2)cn1	98.6
O=C(NO)c1ccc2ncn(Cc3cccc(-c4cccc(C(F)(F)F)c4)c3)c(=O)c2c1	94.4
CC(C)(C)OC(=O)N1CCC(C(CCn2ccc3ccc(C(=O)NO)cc3c2=O)c2ccc(Cl)cc2)CC1 (stereo not drawn)	89.5
O=C(NO)c1ccc2c(=O)n(Cc3ccc(C(F)(F)F)cc3)c(-c3ccc(Cl)cc3)nc2c1	88.6

P: NCCCn1ccc2ccc(C(=O)NO)cc2c1=O
Q: NCc1cn(Cc2ccccc2)c(=O)c2cc(C(=O)NO)ccc12
R: O=C(NO)c1ccc2c(=O)[nH]c(-c3nc4ccccc4o3)nc2c1
Please list these in order of increasing inhibition at 0.37 µM. Thank you! Your answer should be the labels, listed in the requested order. R, Q, P
